target: human GLP-1 receptor (human, UniProt P43220 24-463); experiment: cell-based or functional assay
Numbered stars: 1 amine (or outer) side, 2 acyl side, 3 side chain; on linkers, the order of the positions; unused ones are H or OH. Square brackets hold non-standard residues; d marks the D form. Side chains are listed from the residue outwards. Ends that are not written are not given here. γGlu = O=C(O)[C@H](CCC(=O)[*:2])N[*:1]; X70 = not defined here; x53 = not defined here; Aib = CC(C)(N)C(=O)O
Measured EC50 hGLP-1R (cAMP) of individual entries
# number only, unit pM dropped from output

What value of EC50 hGLP-1R (cAMP) has been recorded for this entry: HXQGTFTSDLSKQKESKAAQEFIEWLKAGGPSSGAPPPS (dSer at 2; K(γE-x53) at 14; C-terminal NH2) [SEQ ID NO: 28] 5.5

Param item = H[Aib]QGTFTSDLSKQK([γGlu-x53])ESQAAQDFIEWLKAGGPSSGAPPPS-NH2 (reading uncertain) [SEQ ID NO: 36] ; retrieve measured EC50 hGLP-1R (cAMP). 2.7

Fill in: EC50 hGLP-1R (cAMP) of H[Aib]QGTFTSDLSKQK([γGlu-X70])DSRRAQDFIEWLKAGGPSSGAPPPS-NH2 (reading uncertain) [SEQ ID NO: 162] is ___ 3.1

// lookup EC50 hGLP-1R (cAMP) for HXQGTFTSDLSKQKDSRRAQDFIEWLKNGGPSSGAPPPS (dSer at 2; K(γE-x53) at 14; C-terminal NH[(CH2)15-CH3]) [SEQ ID NO: 106] 210

Return reported EC50 hGLP-1R (cAMP); argument: HXQGTFTSDLSKQKESRRAXDFIEWLKNGGPSSGAPPPS (dSer at 2; K(x53) at 14; Aib at 20; C-terminal NH2) [SEQ ID NO: 119] 30.8

Query (binder): HXQGTFTSDLSKQKEEKKAKLFIEWLKAGGPSSGAPPPS (dSer at 2; K(γE-x53) at 14; C-terminal NH2) [SEQ ID NO: 23] ; field requested: EC50 hGLP-1R (cAMP) 5.6
